Target: T1, SWSAP1 K18A (Walker A);hSWS1 (Homo sapiens;Homo sapiens, UniProt Q6NVH7;Q19AV6 22-250;1-140, K39A|)
T1 sequence 1: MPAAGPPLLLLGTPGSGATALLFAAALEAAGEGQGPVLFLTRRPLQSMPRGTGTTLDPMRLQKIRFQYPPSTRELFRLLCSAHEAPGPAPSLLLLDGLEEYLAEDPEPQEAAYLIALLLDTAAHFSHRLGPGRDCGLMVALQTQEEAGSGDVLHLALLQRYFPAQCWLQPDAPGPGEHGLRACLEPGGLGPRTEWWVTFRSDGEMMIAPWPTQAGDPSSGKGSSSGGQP
T1 sequence 2: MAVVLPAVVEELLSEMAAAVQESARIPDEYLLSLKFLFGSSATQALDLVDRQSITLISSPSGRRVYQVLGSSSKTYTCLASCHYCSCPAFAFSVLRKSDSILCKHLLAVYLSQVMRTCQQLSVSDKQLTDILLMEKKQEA
Test: fluorescence polarization; 2 mM ADP; FPA: 5 nM 6-FAM DNA, 37 C, 2 mM nucleotide where stated (buffer not given in material); EMSA: 0.05 uM 6-FAM DNA, 5%/15% native PAGE; RAD51 filaments: 2 mM ATP
Conditions: protein: recombinant;recombinant; tags: N-terminal 6xHis-TEV, cleaved;none; copies: 1;1; label: 3' 6-FAM on strand 1; fork 1:2, 19 bp duplex, 20 nt arms
measured_endpoint: pKd
Please note pKd is a logarithmic value: minus log10 of concentration in mol/L. Answer with that number alone.

Task item: # lookup: pKd of Fork (dsDNA) DNA 1: TTTTTTTTTTTTTTTTTTTTCTTGACAAGCTTGCGCACT DNA 2: AGTGCGCAAGCTTGTCAAGGCACTTTTTTTTTTTTTTTT
Reply: 5.15
